Data provenance: patent US9493444B2

System: Wnt pathway (TCF-dependent transcription in HEK293 luciferase reporter cell line with ER-DSH construct)
Experiment: Cellular assay for Wnt pathway activity (luciferase reporter)
Assay type: cell-based
Conditions: Homo sapiens; Wnt pathway inhibition, HEK293 luciferase reporter cells (ER-DSH, TCF promoter), 24 hours incubation, estrogen-induced
Experimental: 1. Cellular Assay for Wnt Pathway Activity Compounds were tested for their Wnt pathway inhibitory activities using a luciferase reporter cell based assay. […] Compounds, in concentrations from 30 μM down to 1 nM, were incubated for 24 hours on the cells, which were induced for TCF-dependent transcription by the addition of estrogen (10). Luciferase activities were determined using the ONE GLO Luciferase Assay System (Promega) and the ENVISION microplate reader (Perkin Elmer). […]
pIC50: −log10 of the molar value.
# maps each entry to its pIC50
measurement_name: pIC50

[[record]]
smiles_string = "CSc1cccc(Oc2cncc(N(C)CCN(C)C(C)=O)n2)c1"
test_result = "6.00 to 6.70"

[[record]]
smiles_string = "CC(=O)OCc1ccc(Oc2cncc(N(C)CCN(C)C(C)=O)n2)cc1"
test_result = "> 6.70"

[[record]]
smiles_string = "CC(=O)N(C)CCN(C)c1cncc(Oc2ccc(-c3ccc([N+](=O)[O-])cn3)cc2)n1"
test_result = "> 6.70"

[[record]]
smiles_string = "CC(=O)N(C)CCN(C)c1cncc(Oc2ccc(B(O)O)cc2)n1"
test_result = "6.00 to 6.70"

[[record]]
smiles_string = "O=C1CCCCN1CCNc1cncc(Oc2ccc(N3CCOCC3)cc2)n1"
test_result = "6.00 to 6.70"


---

# pIC50 values compiled below
Tested on: Wnt pathway (TCF-dependent transcription in HEK293 luciferase reporter cell line with ER-DSH construct)
Assay: Cellular assay for Wnt pathway activity (luciferase reporter)
Type: cell-based
Settings: Homo sapiens; Wnt pathway inhibition, HEK293 luciferase reporter cells (ER-DSH, TCF promoter), 24 hours incubation, estrogen-induced
pIC50: −log10 of the molar value.
measurement_name: pIC50

[[record]]
molecule = "CC(=O)N(C)CCN(C)c1cncc(Oc2ccc(-c3cc(N4CCN(C)CC4)ccn3)cc2)n1"
measurement_name = "pIC50"
test_result = "5.00 to 6.00"

[[record]]
molecule = "COc1ccc(Oc2cncc(N3CCCC(CNC(C)=O)C3)n2)cc1 (stereo not shown)"
measurement_name = "pIC50"
test_result = "5.00 to 6.00"

[[record]]
molecule = "CC(=O)N(C)CCN(C)c1cncc(Oc2ccc(C)nc2)n1"
measurement_name = "pIC50"
test_result = "5.00 to 6.00"

[[record]]
molecule = "CC(=O)N(C)CCN(C)c1cncc(Oc2ccc(C(F)(F)F)cc2)n1"
measurement_name = "pIC50"
test_result = "6.00 to 6.70"

[[record]]
molecule = "O=C1CCCCN1CCNc1cncc(Oc2ccc(-c3ccc(N4CCOCC4)nc3)cc2)n1"
measurement_name = "pIC50"
test_result = "> 6.70"

[[record]]
molecule = "CC(=O)Nc1ccc(-c2ccc(Oc3cncc(CCCN(C)C(C)=O)n3)cc2)cn1"
measurement_name = "pIC50"
test_result = "6.00 to 6.70"

[[record]]
molecule = "CNCCN(C)c1cncc(OC2CCCCC2)n1"
measurement_name = "pIC50"
test_result = "6.00 to 6.70"


---

Quick reference: pIC50 of the listed items.
Tested on: Wnt pathway (TCF-dependent transcription in HEK293 luciferase reporter cell line with ER-DSH construct)
Experiment: Cellular assay for Wnt pathway activity (luciferase reporter)
Format: cell-based
Conditions: Homo sapiens; Wnt pathway inhibition, HEK293 luciferase reporter cells (ER-DSH, TCF promoter), 24 hours incubation, estrogen-induced
pIC50: −log10 of the molar value.
measurement_name: pIC50

[[record]]
molecule = "CCC1Sc2ccccc2NC1c1ccc(Oc2cncc(N(C)CCN(C)C(C)=O)n2)cc1 (centres unmarked) [Compound 135]"
test_result = "5.00 to 6.00"

[[record]]
molecule = "CC(=O)N(C)CCN(C)c1cncc(Oc2ccc(-c3ccn(C)n3)c(F)c2F)n1 [Compound 256]"
test_result = "6.00 to 6.70"

[[record]]
molecule = "CC(=O)N(C)CCN(C)c1cncc(Oc2ccc(F)cc2)c1 [Compound 310]"
test_result = "5.00 to 6.00"

[[record]]
molecule = "CC(=O)N(C)CCN(C)c1cncc(Oc2ccc(-c3cnn(C)c3)cc2)n1 [Compound 313]"
test_result = "> 6.70"

[[record]]
molecule = "CC(=O)N(C)CCCN(C)c1cncc(Oc2ccc(F)cc2)n1 [Compound 83]"
test_result = "5.00 to 6.00"


---

Below, each of the compounds is paired with its reported IC50 value.
System: Wnt pathway (TCF-dependent transcription in HEK293 luciferase reporter cell line with ER-DSH construct)
Assay: Cellular assay for Wnt pathway activity (luciferase reporter)
Format: cell-based
Conditions: Homo sapiens; Wnt pathway inhibition, HEK293 luciferase reporter cells (ER-DSH, TCF promoter), 24 hours incubation, estrogen-induced
Experimental: 1. Cellular Assay for Wnt Pathway Activity Compounds were tested for their Wnt pathway inhibitory activities using a luciferase reporter cell based assay. […] Compounds, in concentrations from 30 μM down to 1 nM, were incubated for 24 hours on the cells, which were induced for TCF-dependent transcription by the addition of estrogen (10). Luciferase activities were determined using the ONE GLO Luciferase Assay System (Promega) and the ENVISION microplate reader (Perkin Elmer). […]
measurement_name: IC50

[[record]]
compound = "CCC(=O)N(C)CCN(C)c1cncc(Oc2ccc(OC)cc2)n1"
measurement_name = "IC50"
test_result = "1000 to 10000 nM"

[[record]]
compound = "CC(=O)N(C)CCN(C)c1cncc(Oc2ccc(-c3cccc(C)n3)cc2)n1"
measurement_name = "IC50"
test_result = "< 200 nM"

[[record]]
compound = "CCOC(=O)Cc1ccc(Oc2cncc(N(C)CCN(C)C(C)=O)n2)cc1"
measurement_name = "IC50"
test_result = "< 200 nM"

[[record]]
compound = "CC(=O)N(C)CCCc1cncc(Oc2ccc(-c3ccc(F)cn3)cc2)n1"
measurement_name = "IC50"
test_result = "1000 to 10000 nM"

[[record]]
compound = "CCN(CCNc1cncc(Oc2ccc(F)cc2)n1)C(C)=O"
measurement_name = "IC50"
test_result = "1000 to 10000 nM"

[[record]]
compound = "CC(=O)N(C)CCN(C)c1cncc(Oc2ccc(-c3ccncc3C#N)cc2F)n1"
measurement_name = "IC50"
test_result = "< 200 nM"

[[record]]
compound = "CC(=O)N(C)CCNc1cncc(Oc2ccc(-c3ccncc3C#N)cc2)n1"
measurement_name = "IC50"
test_result = "1000 to 10000 nM"

[[record]]
compound = "CC(=O)N(C)CCN(C)c1cncc(Oc2ccc(-c3ncccc3N3CCOCC3)cc2)n1"
measurement_name = "IC50"
test_result = "1000 to 10000 nM"

[[record]]
compound = "CCN(CCNc1cncc(Oc2ccc(OC)cc2)n1)C(C)=O"
measurement_name = "IC50"
test_result = "200 to 1000 nM"

[[record]]
compound = "CN(CCN(C)c1cncc(Oc2ccc3ncccc3c2)n1)C(=O)C(F)(F)F"
measurement_name = "IC50"
test_result = "1000 to 10000 nM"

[[record]]
compound = "CC(=O)N(C)CCCc1cncc(Oc2ccc(F)cc2)n1"
measurement_name = "IC50"
test_result = "1000 to 10000 nM"

[[record]]
compound = "CC(=O)N(C)CCCc1cncc(Oc2ccc(-c3cnc(N)cn3)cc2)n1"
measurement_name = "IC50"
test_result = "200 to 1000 nM"

[[record]]
compound = "CC(=O)N(C)CCN(C)c1cncc(Oc2ccc(-c3ccc(C#N)nc3)cc2)n1"
measurement_name = "IC50"
test_result = "< 200 nM"

[[record]]
compound = "CC(=O)N(C)CCN(C)c1cncc(Oc2ccc(-c3ccc(Cl)cc3)c(F)c2F)n1"
measurement_name = "IC50"
test_result = "200 to 1000 nM"

[[record]]
compound = "CC(N)C(=O)N(C)CCN(C)c1cncc(Oc2ccc(F)cc2)n1 (stereo not drawn)"
measurement_name = "IC50"
test_result = "1000 to 10000 nM"

[[record]]
compound = "CC(=O)N(C)CCN(C)c1cncc(Oc2ccc(-c3ccccc3)cc2)n1"
measurement_name = "IC50"
test_result = "< 200 nM"

[[record]]
compound = "CC(=O)N(C)CCN(C)c1cncc(Oc2ccc(Cl)cc2)n1"
measurement_name = "IC50"
test_result = "200 to 1000 nM"

[[record]]
compound = "CC(=O)N(C)CCN(C)c1cncc(Oc2ccc(CC(N)=O)cc2)n1"
measurement_name = "IC50"
test_result = "200 to 1000 nM"

[[record]]
compound = "CC(=O)N(C)CCN(C)c1cncc(Oc2ccc3c(cnn3C)c2)n1"
measurement_name = "IC50"
test_result = "< 200 nM"

[[record]]
compound = "CC(=O)N(C)CCN(C)c1cncc(Oc2ccc(-c3ccnc(C#N)c3)cc2)n1"
measurement_name = "IC50"
test_result = "< 200 nM"

[[record]]
compound = "COc1ccc(Oc2cncc(N(C)CCN(C)C(C)=O)n2)cc1"
measurement_name = "IC50"
test_result = "200 to 1000 nM"

